- targetDesc: activated JNK3 (Homo sapiens)
- Construct: One such construct encodes amino acid residues Ser40-Glu402 of JNK3α1 and is preceded by Met and Gly residues; Met-Gly (initiation Met plus Gly added to create the NcoI site) (N)
- protocolDescription: JNK3 inhibition, spectrophotometric coupled-enzyme assay
- experimentalConditions: read-out: Activity in the JNK3 Inhibition Assay (Ki rating)
measuredMetric: Ki

>>> assayresult("Cc1onc(-c2ccccc2)c1-c1ccnc(NC(=O)c2ccccc2Br)n1 [IIIA-2]")
"> 1000 nM"
>>> assayresult("COc1cccc(C(=O)Nc2nccc(-c3c(-c4cccc(C#N)c4)noc3C)n2)c1 [IIIA-39]")
"> 1000 nM"
>>> assayresult("Cc1onc(-c2c(F)cccc2F)c1-c1ccnc(Nc2cccc(F)c2)n1 [IIA-94]")
"< 100 nM"
>>> assayresult("COCc1ccc2ccccc2c1Nc1nccc(-c2c(-c3ccccc3)noc2C)n1 [IIAA-18]")
"100 to 1000 nM"
>>> assayresult("Cc1onc(-c2ccccc2)c1-c1ccnc(Nc2ccccc2F)n1 [IIA-59]")
"< 100 nM"

Entry COc1cccc(C(=O)Nc2nccc(-c3c(-c4c(F)cccc4F)noc3C)n2)c1 [IIIA-65] : reported Ki = ?
100 to 1000 nM

Entry CSc1ccc(Nc2nccc(-c3c(-c4c(F)cccc4F)noc3C)n2)cc1 [IIA-97] : reported Ki = ?
< 100 nM

Entry Cc1onc(-c2cccc(F)c2)c1-c1ccnc(NC(=O)c2ccc3ccccc3c2)n1 [IIIA-53] : reported Ki = ?
100 to 1000 nM

Entry COc1ccc(C(=O)Nc2nccc(-c3c(-c4cccc(OCc5ccccc5)c4)noc3C)n2)cc1 [IIIA-32] : reported Ki = ?
100 to 1000 nM

Entry COc1ccc2cc(Nc3nccc(-c4c(-c5ccccc5)noc4C)n3)ccc2c1 [IIAA-10] : reported Ki = ?
< 100 nM

Entry Cc1onc(-c2ccccc2)c1-c1ccnc(Nc2cccc(C(=O)O)c2)c1 [IIA-43] : reported Ki = ?
< 100 nM

Entry CCOC(=O)c1cccc(Nc2nccc(-c3c(-c4ccccc4)noc3C)n2)c1 [IIA-130] : reported Ki = ?
< 100 nM

Entry COc1ccc(C(=O)Nc2nccc(-c3c(-c4ccccc4)noc3C)n2)cc1 [IIIA-7] : reported Ki = ?
100 to 1000 nM

Entry COc1ccc(C(=O)Nc2nccc(-c3c(-c4ccccc4C(F)(F)F)noc3C)n2)cc1 [IIIA-24] : reported Ki = ?
> 1000 nM

Entry Cc1ccnc(Nc2nccc(-c3c(-c4ccccc4)noc3C)n2)c1 [IIAA-12] : reported Ki = ?
< 100 nM

Entry Cc1onc(-c2c(F)cccc2Cl)c1-c1ccnc(Nc2ccccc2)n1 [IIA-75] : reported Ki = ?
100 to 1000 nM

Entry Cc1onc(-c2cccc(OCc3ccccc3)c2)c1-c1ccnc(Nc2ccc(C#N)c(F)c2)n1 [IIA-117] : reported Ki = ?
100 to 1000 nM

Entry Cc1noc(C)c1-c1ccnc(Nc2ccccc2)n1 [IIA-86] : reported Ki = ?
> 1000 nM

Entry COc1cc(OC)cc(C(=O)Nc2nccc(-c3c(-c4ccccc4C(F)(F)F)noc3C)n2)c1 [IIIA-25] : reported Ki = ?
> 1000 nM

Entry COCCOCc1onc(-c2ccc(F)cc2)c1-c1ccnc(NC2CCCCC2)n1 [XIA-49] : reported Ki = ?
< 100 nM

Entry Cc1onc(-c2ccccc2)c1-c1ccnc(NC2Cc3ccccc3C2)n1 [IIAA-25] : reported Ki = ?
< 100 nM

Entry Cc1onc(-c2ccccc2F)c1-c1ccnc(Nc2ccccc2)n1 [IIA-55] : reported Ki = ?
< 100 nM

Entry CSc1cccc(Nc2nccc(-c3c(-c4ccccc4)noc3C)n2)c1 [IIA-37] : reported Ki = ?
< 100 nM

Entry CCOC(=O)c1ccc(Nc2nccc(-c3c(-c4cccc([N+](=O)[O-])c4)noc3C)n2)cc1 [IIA-128] : reported Ki = ?
100 to 1000 nM

Entry Cc1ccc2cc(Nc3nccc(-c4c(-c5cccc(C#N)c5)noc4C)n3)ccc2n1 [IIAA-23] : reported Ki = ?
100 to 1000 nM

Entry COc1cccc(C(=O)Nc2nccc(-c3c(-c4cccc([N+](=O)[O-])c4)noc3C)n2)c1 [IIIA-35] : reported Ki = ?
> 1000 nM

Entry COc1ccccc1Nc1nccc(-c2c(-c3ccccc3)noc2C)n1 [IIA-62] : reported Ki = ?
< 100 nM

Entry Cc1ccc2cc(Nc3nccc(-c4c(-c5cccc([N+](=O)[O-])c5)noc4C)n3)ccc2n1 [IIAA-22] : reported Ki = ?
100 to 1000 nM

Entry Cc1onc(-c2ccccc2F)c1-c1ccnc(NC(=O)c2cccc(C#N)c2)n1 [IIIA-61] : reported Ki = ?
100 to 1000 nM

Entry Cc1onc(-c2ccccc2)c1-c1ccnc(NC(=O)c2ccccc2F)n1 [IIIA-3] : reported Ki = ?
100 to 1000 nM

====

The following molecules are listed with their measured pKi values.
- targetDesc: activated JNK3 (Homo sapiens)
- Construct: One such construct encodes amino acid residues Ser40-Glu402 of JNK3α1 and is preceded by Met and Gly residues; Met-Gly (initiation Met plus Gly added to create the NcoI site) (N)
- protocolDescription: JNK3 inhibition, spectrophotometric coupled-enzyme assay
- experimentalConditions: read-out: Activity in the JNK3 Inhibition Assay (Ki rating)
pKi: −log10 of the molar value.

These solved cases illustrate the format of a correct answer.
>>> assayresult("COc1cccc(C(=O)Nc2nccc(-c3c(-c4ccccc4C)noc3C)n2)c1")
"6.00 to 7.00"
>>> assayresult("Cc1onc(-c2cccc(F)c2)c1-c1ccnc(NC(=O)c2cccc(C#N)c2)n1")
"6.00 to 7.00"

Entry CC(=O)Nc1cccc(C(=O)Nc2nccc(-c3c(-c4ccccc4)noc3C)n2)c1 : reported pKi = ?
6.00 to 7.00

Entry Cc1ccc(C(=O)Nc2nccc(-c3c(-c4c(F)cccc4F)noc3C)n2)cc1 : reported pKi = ?
6.00 to 7.00

Entry Cc1onc(-c2ccccc2)c1-c1ccnc(Nc2cccc(CC(=O)O)c2)c1 : reported pKi = ?
> 7.00

====

- targetDesc: activated JNK3 (Homo sapiens, UniProt P53779)
- Construct: One such construct encodes amino acid residues Ser40-Glu402 of JNK3α1 and is preceded by Met and Gly residues; Met-Gly (initiation Met plus Gly added to create the NcoI site) (N)
- Sequence (P53779 40-402): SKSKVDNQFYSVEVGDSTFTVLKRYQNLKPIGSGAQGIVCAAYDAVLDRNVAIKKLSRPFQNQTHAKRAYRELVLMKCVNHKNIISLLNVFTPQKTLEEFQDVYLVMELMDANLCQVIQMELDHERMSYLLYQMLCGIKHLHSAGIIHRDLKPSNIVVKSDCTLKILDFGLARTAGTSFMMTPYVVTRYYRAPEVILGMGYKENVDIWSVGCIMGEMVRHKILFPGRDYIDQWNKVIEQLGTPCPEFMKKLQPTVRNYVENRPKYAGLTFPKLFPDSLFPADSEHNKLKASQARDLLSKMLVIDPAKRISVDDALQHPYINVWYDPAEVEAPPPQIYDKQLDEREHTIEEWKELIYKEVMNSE
- protocolDescription: JNK3 inhibition, spectrophotometric coupled-enzyme assay
- experimentalConditions: read-out: Activity in the JNK3 Inhibition Assay (Ki rating)
pKi: −log10 of the molar value.
measuredMetric: pKi

These solved cases illustrate the format of a correct answer.
>>> assayresult("Fc1ccc(-c2noc(COCc3ccccc3)c2-c2ccnc(NCCc3ccccn3)n2)cc1 [XIA-53]")
"> 7.00"
>>> assayresult("Cc1ccccc1-c1noc(C)c1-c1ccnc(Nc2ccccc2)n1 [IIA-104]")
"> 7.00"

Entry Cc1onc(-c2cccc(OCc3ccccc3)c2)c1-c1ccnc(Nc2ccccc2)n1 [IIA-119] : reported pKi = ?
6.00 to 7.00

Entry CCOCc1onc(-c2ccc(F)cc2)c1-c1ccnc(NC2CCCCC2)n1 [XIA-48] : reported pKi = ?
> 7.00

Entry Cc1onc(-c2ccccc2)c1-c1ccnc(NC(=O)CC(C)C)n1 [XA-4] : reported pKi = ?
6.00 to 7.00

Entry COc1ccc(C(=O)Nc2nccc(-c3c(-c4cccc(C#N)c4)noc3C)n2)cc1 [IIIA-40] : reported pKi = ?
< 6.00

====

The following compounds are listed with their measured Ki values.
- targetDesc: activated JNK3 (Homo sapiens, UniProt P53779)
- Construct: One such construct encodes amino acid residues Ser40-Glu402 of JNK3α1 and is preceded by Met and Gly residues; Met-Gly (initiation Met plus Gly added to create the NcoI site) (N)
- protocolDescription: JNK3 inhibition, spectrophotometric coupled-enzyme assay
- experimentalConditions: read-out: Activity in the JNK3 Inhibition Assay (Ki rating)
- Description: A BLAST search of the EST database using the published JNK3α1 cDNA as a query identified an EST clone (#632588) that contained the entire coding sequence for human JNK3α1. […] Compounds were assayed for the inhibition of JNK3 by a spectrophotometric coupled-enzyme assay. […] The decrease of absorbance at 340 nm was monitored as a function of time. […]

These solved cases illustrate the format of a correct answer.
>>> assayresult("Cc1onc(-c2ccccc2)c1-c1ccnc(Nc2ccc(C(=O)O)cc2)c1")
"< 100 nM"
>>> assayresult("COc1ccc2cc(Nc3nccc(-c4c(-c5c(F)cccc5F)noc4C)n3)ccc2c1")
"< 100 nM"
>>> assayresult("Cc1onc(-c2ccccc2)c1-c1ccnc(Nc2cccc(C#N)c2)c1")
"< 100 nM"
>>> assayresult("Cc1onc(-c2ccccc2)c1-c1ccnc(NC(=O)c2cccc(C#N)c2)n1")
"< 100 nM"
>>> assayresult("Cc1onc(-c2ccccc2)c1-c1ccnc(NC2CCNCC2)n1")
"100 to 1000 nM"

What reported Ki corresponds to COc1cccc(OC)c1C(=O)Nc1nccc(-c2c(-c3ccccc3)noc2C)n1 on activated JNK3 (Homo sapiens, UniProt P53779)?
> 1000 nM

What reported Ki corresponds to Cc1onc(-c2ccccc2)c1-c1ccnc(NC(=O)C2CCCC2)n1 on activated JNK3 (Homo sapiens, UniProt P53779)?
100 to 1000 nM

Source of measurements: patent US6693108B2
